# test.system: CFTR-mediated chloride transport in human intestinal epithelial enteroid cells (Homo sapiens, UniProt P13569)
# Sequence (P13569 with tags, fused parts or gaps DEL508-508): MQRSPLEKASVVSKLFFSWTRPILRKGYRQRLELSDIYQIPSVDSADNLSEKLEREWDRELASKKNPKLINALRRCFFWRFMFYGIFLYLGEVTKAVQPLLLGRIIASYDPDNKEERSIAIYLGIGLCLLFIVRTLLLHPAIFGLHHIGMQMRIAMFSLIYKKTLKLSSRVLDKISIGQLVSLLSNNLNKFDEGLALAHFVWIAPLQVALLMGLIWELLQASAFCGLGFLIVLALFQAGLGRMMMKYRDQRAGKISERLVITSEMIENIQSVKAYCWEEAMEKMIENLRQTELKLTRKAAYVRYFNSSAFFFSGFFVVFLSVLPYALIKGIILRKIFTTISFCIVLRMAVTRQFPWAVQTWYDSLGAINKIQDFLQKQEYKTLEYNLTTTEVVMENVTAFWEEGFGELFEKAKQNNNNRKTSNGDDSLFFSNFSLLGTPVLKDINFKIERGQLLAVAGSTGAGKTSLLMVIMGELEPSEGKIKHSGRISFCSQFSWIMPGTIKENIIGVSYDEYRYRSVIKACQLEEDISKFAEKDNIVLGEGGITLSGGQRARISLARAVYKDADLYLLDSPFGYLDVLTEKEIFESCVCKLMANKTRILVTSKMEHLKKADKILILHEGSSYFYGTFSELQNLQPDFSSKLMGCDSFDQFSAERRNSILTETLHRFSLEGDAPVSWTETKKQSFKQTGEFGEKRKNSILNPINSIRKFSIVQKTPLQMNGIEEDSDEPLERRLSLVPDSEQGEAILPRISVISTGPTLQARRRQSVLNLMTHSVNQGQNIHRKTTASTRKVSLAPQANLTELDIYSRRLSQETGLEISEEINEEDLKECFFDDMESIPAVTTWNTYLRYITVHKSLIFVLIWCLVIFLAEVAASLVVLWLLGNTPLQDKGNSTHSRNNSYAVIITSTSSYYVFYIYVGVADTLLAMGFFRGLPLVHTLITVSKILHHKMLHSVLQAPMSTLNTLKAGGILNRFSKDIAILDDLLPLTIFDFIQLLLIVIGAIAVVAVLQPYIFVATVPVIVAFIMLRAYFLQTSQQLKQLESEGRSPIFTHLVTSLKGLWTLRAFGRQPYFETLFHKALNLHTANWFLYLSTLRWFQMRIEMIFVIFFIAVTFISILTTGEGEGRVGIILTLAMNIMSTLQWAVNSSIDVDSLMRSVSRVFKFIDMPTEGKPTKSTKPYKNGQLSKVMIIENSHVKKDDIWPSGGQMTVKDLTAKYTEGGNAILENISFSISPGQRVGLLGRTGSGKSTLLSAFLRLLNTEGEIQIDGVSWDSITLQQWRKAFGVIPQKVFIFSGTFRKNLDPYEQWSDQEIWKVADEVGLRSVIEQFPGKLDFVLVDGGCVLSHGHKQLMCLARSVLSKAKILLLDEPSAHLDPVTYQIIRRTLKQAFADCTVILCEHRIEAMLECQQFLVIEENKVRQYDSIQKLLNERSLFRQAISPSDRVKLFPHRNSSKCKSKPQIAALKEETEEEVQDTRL
# assay.procedure: Membrane potential dye, Enteroid Assay B
# Format: cell-based
# experimental.context: enteroid cells, 18-24 hours incubation, acute 10 μM forskolin and 300 nM ivacaftor; read-out: Ent. B EC50
Entries annotated with measured EC50

Example entries begin here.
Cc1cccc(C)c1-c1cc2nc(n1)NS(=O)(=O)c1cccc(c1)OC(Cc1ccccc1)CCO2 (stereo not drawn) [Compound 120]	< 1000 nM
Cc1cccc(C)c1-c1cc2nc(n1)NS(=O)(=O)c1cccc(c1)OCCCO2 [Compound 122]	3000 to 30000 nM

[ask] Given the compound Cc1cccc(C)c1-c1cc2nc(n1)NS(=O)(=O)c1cccc(c1)OC(c1ccccc1)CCO2 (stereo not drawn) [Compound 121] , what is its reported EC50?
[reply] < 1000 nM
